Test system: U2OS
Assay: Multiplex assay against U2OS
Assay type: toxicity, cell-based
Settings: human, 48 h, 10 µM, compound concentration 10 uM, replicate 1
Non-standard residues stand in square brackets, D forms with d. Residues, ends and D or L forms follow the SMILES beside them.
Recorded Population Pyknosed Nuclei (%) for the following molecules

molecule	readout_units	Population Pyknosed Nuclei (%)
O=c1ccc2ccc(OCCCCN3CCN(c4cccc5sccc45)CC3)cc2[nH]1 [BREXPIPRAZOLE]	%	41
Cc1cc(NC(=O)NCCN2CCC(O)(Cc3ccccc3)CC2)c2ccccc2n1 [PALOSURAN]	%	9
C=CCN1C[C@H](C(=O)N(CCCN(C)C)C(=O)NCC)C[C@@H]2c3cccc4[nH]cc(c34)C[C@H]21 [CABERGOLINE]	%	12
COc1cc(Nc2ncc3c(n2)-c2ccc(Cl)cc2C(c2c(F)cccc2OC)=NC3)ccc1C(=O)O [ALISERTIB]	%	21
CCCCCCNC(=O)Nc1ccc(S(=O)(=O)Nc2ccc(CCNC[C@H](O)COc3ccc(O)cc3)cc2)cc1 [L-755507]	%	9
O=C(O)CCC/C=C\CC1C(O)CC(O)C1/C=C/C(O)COc1cccc(Cl)c1 (stereo not given) [CLOPROSTENOL]	%	14
CC(C)C[C@@H]1NC(=O)[C@@H](C(C)C)NC(=O)[C@@H]2CCCN2C(=O)[C@@H](CC(=O)O)NC(=O)[C@@H](Cc2c[nH]c3ccccc23)NC1=O [BQ-123] (cyclo(L[dW][dD]P[dV]))	%	9
Cc1c(Cc2ccc3ccccc3n2)c2cc(F)ccc2n1CC(=O)O [TIMAPIPRANT]	%	6
Cc1sc2c(c1C)C(c1ccc(Cl)cc1)=N[C@H](CC(=O)OC(C)(C)C)c1nnc(C)n1-2	%	18
CN1CCN2c3ccccc3Cc3ccccc3C2C1.Cl (stereo not given) [MIANSERIN HYDROCHLORIDE]	%	9
COc1cc(C(=O)N2CC[C@@H](O)[C@@H](N)C2)cc2nc(-c3cc4ccccc4n3CC3CC3)n(C)c12.Cl	%	35
CC(C)(O)C(=O)N1CCN(c2ccc(C(F)(F)F)c(C3=C(c4c[nH]c5ccccc45)C(=O)NC3=O)c2)CC1	%	30
COc1c(Nc2ccc(S(C)(=O)=O)nc2C)ncnc1OC1CCN(C(=O)OC(C)C)CC1 [ADP-597]	%	13
CN1C[C@H](C(=O)N[C@]2(C)O[C@@]3(O)[C@@H]4CCCN4C(=O)[C@H](Cc4ccccc4)N3C2=O)C[C@@H]2c3cccc4[nH]cc(c34)C[C@H]21.CS(=O)(=O)O [DIHYDROERGOTAMINE MESYLATE]	%	9
CN1CCN(c2ccc(Nc3c4ccccc4nc4ccccc34)cc2)CC1.Cl.Cl.O	%	15
